# tested-on: recombinant human mPGES-1 (Homo sapiens (Human), UniProt O14684)
# assay-comment: mPGES-1 enzyme assay (HTRF detection of PGE2)
# Format: biochemical
# experimental-parameters: recombinant human mPGES-1 microsomes, PGH2 2 μM, 60 seconds; read-out: mPGES-1 inhibitory effect IC50 in the enzyme assay
# Method: Microsomes from Rosetta E. coli bacteria expressing recombinant human mPGES-1 can be derived as described below: Inoculate 5 ml LB with Ampicilin (50 μg/ml) and Chloramphenicol (34 μg/ml) with bacteria from freeze culture. […] The fluorescence of Europium cryptate (maxex=307 nm, maxem=620 nm) and d2-PGE2 (maxex=620 nm, maxem=665 nm) are measured. The extent of the specific HTRF is measured as a ratio of the emission intensity at 665 nm vs. that at 620 nm at an excitation puts of 320 nm. […]
property: IC50 (nM)

(A) Cn1c(Nc2c(Cl)ccc(CNC(=O)c3ccc(N)cc3Cl)c2Cl)nc2cc(C(=O)NCCC(F)(F)F)c(N3CCC(C(F)(F)F)CC3)cc21
(B) CC(NC(=O)c1cc2nc(Nc3c(Cl)ccc(CNC(=O)C(C)(C)C)c3Cl)n(C)c2cc1N1CCC(F)(F)C1)c1cccs1 (stereo not drawn)
Hi, I'm comparing A with B and wondering which one has the bigger number for IC50. Any idea? Give the label of your selection.
B

###

# tested-on: mPGES-1 in A549 cells (Homo sapiens (Human))
# assay-comment: A549 cell-based assay (PGE2 formation, 50% human serum)
# experimental-parameters: IL-1β 5 ng/ml, 10 nM arachidonic acid, 20-24 h, read-out: mPGES-1 inhibitory effect IC50 in the cell assay
pIC50: −log10 of the molar value.
property: pIC50

molecule	pIC50
Cc1noc(C)c1C(=O)NCc1ccc(Cl)c(Nc2nc3cc(C(=O)N[C@H]4CC[C@H](C(F)(F)F)CC4)c(N4CC5CC5C4)cc3n2C)c1Cl (stereo partly drawn) [Example 224]	7.17

(1) Cn1c(Nc2c(Cl)ccc(CNC(=O)C(C)(C)C)c2Cl)nc2cc(C(=O)Nc3cc(C(C)(C)CO)no3)c(N3CCC(C(F)(F)F)CC3)cc21 [Example 160]
(2) Cn1c(Nc2c(Cl)ccc(CNC(=O)C(C)(C)C)c2Cl)nc2cc(C(=O)N[C@H](c3ccccc3)C(F)(F)F)c(N3CCC(F)(F)C3)cc21 [Example 41]
(3) Cn1c(Nc2c(Cl)ccc(CNC(=O)C(C)(C)C)c2Cl)nc2cc(C(=O)N[C@H]3CC[C@H](C(F)(F)F)CC3)c(N3CCn4cncc4C3)cc21 [Example 24]
Reorder: pIC50, max to min. // rank by listing labels in the order requested
1, 2, 3

(A) Cn1c(Nc2c(Cl)ccc(CNC(=O)C(C)(C)C)c2Cl)nc2cc(C(=O)Nc3nc(C(F)(F)F)cs3)c(N3CCC(C(F)(F)F)CC3)cc21 [Example 161]
(B) Cn1c(Nc2c(Cl)ccc(CNC(=O)C(C)(C)F)c2Cl)nc2cc(C(=O)Nc3cccc(C(F)(F)F)n3)c(N3CCC(C(F)(F)F)CC3)cc21 [Example 242]
Hi, I'm comparing A with B and wondering which one has the bigger number for pIC50. Any idea? Give the label of your selection.
A

###

# tested-on: recombinant human mPGES-1 (Homo sapiens (Human))
# assay-comment: mPGES-1 enzyme assay (HTRF detection of PGE2)
# Format: biochemical
# experimental-parameters: recombinant human mPGES-1 microsomes, PGH2 2 μM, 60 seconds; read-out: mPGES-1 inhibitory effect IC50 in the enzyme assay
property: IC50 (nM)

smiles-representation	units-of-measure	IC50
Cc1nc(C(F)(F)F)c(CNC(=O)c2cc3nc(Nc4c(Cl)ccc(CNC(=O)C(C)(C)C)c4Cl)n(C)c3cc2N2CCC(C(F)(F)F)CC2)s1	nM	4

(P) Cn1c(Nc2c(Cl)ccc(CNC(=O)C(C)(C)C)c2Cl)nc2cc(C(=O)NC3CC(F)(F)C3)c(N3CCC(C(F)(F)F)CC3)cc21
(Q) Cn1c(Nc2c(Cl)ccc(CNC(=O)C(C)(C)C)c2Cl)nc2cc(C(=O)N[C@H]3CC[C@H](C(F)(F)F)CC3)c(N3C[C@@H]4C[C@H]3CO4)cc21
Hi, I'm comparing P with Q and wondering which one has the bigger number for IC50. Any idea? Give the label of your selection.
Q

###

# tested-on: recombinant human mPGES-1 (Homo sapiens (Human))
# assay-comment: mPGES-1 enzyme assay (HTRF detection of PGE2)
# Assay type: biochemical
# experimental-parameters: recombinant human mPGES-1 microsomes, PGH2 2 μM, 60 seconds; read-out: mPGES-1 inhibitory effect IC50 in the enzyme assay
pIC50: −log10 of the molar value.
property: pIC50

molecule	tested-on	pIC50
Cn1c(Nc2c(Cl)ccc(CNC(=O)C(C)(C)C)c2Cl)nc2cc(C(=O)N[C@H]3CC[C@H](C(F)(F)F)CC3)c(N3CC4CCCC43)cc21 (stereo partly drawn)	recombinant human mPGES-1 (Homo sapiens (Human))	8.70
Cn1c(Nc2c(Cl)ccc(CNC(=O)C(C)(C)C)c2Cl)nc2cc(C(=O)NC3(c4ccc(F)cc4)CC3)c(N3CCC(C(F)(F)F)CC3)cc21	recombinant human mPGES-1 (Homo sapiens (Human))	8.52
Cn1c(Nc2c(Cl)ccc(CNC(=O)C(C)(C)C)c2Cl)nc2cc(C(=O)Nc3cccc(C(F)(F)F)n3)c(N3CCC(F)(F)C3)cc21	recombinant human mPGES-1 (Homo sapiens (Human))	8.70

###

# tested-on: recombinant human mPGES-1 (Homo sapiens (Human))
# assay-comment: mPGES-1 enzyme assay (HTRF detection of PGE2)
# Type: biochemical
# experimental-parameters: recombinant human mPGES-1 microsomes, PGH2 2 μM, 60 seconds; read-out: mPGES-1 inhibitory effect IC50 in the enzyme assay
pIC50: −log10 of the molar value.
property: pIC50

molecule	meas-value
Cn1c(Nc2c(Cl)ccc(CNC(=O)C(C)(C)C)c2F)nc2cc(C(=O)Nc3ccc(F)c(Cl)c3)c(N3CCC(F)(F)C3)cc21	8.52
Cn1c(Nc2c(Cl)ccc(CNC(=O)C(C)(C)C)c2Cl)nc2cc(C(=O)N[C@H]3CC[C@@H](C(F)(F)F)CC3)c(N3CCC(C(F)(F)F)CC3)cc21	8.70
Cn1c(Nc2c(Cl)ccc(CNC(=O)C(C)(C)C)c2Cl)nc2cc(C(=O)NCC(F)(F)C(F)(F)F)c(N3CCOCC3)cc21	8.40
Cn1c(Nc2c(Cl)ccc(CNC(=O)C(C)(C)F)c2Cl)nc2cc(C(=O)NCCC(F)(F)F)c(N3CCC(C(F)(F)F)CC3)cc21	8.40
CN(CCS(C)(=O)=O)c1cc2c(cc1C(=O)N[C@H]1CC[C@H](C(F)(F)F)CC1)nc(Nc1c(Cl)ccc(CNC(=O)C(C)(C)C)c1Cl)n2C	8.70
CC(O)CN(C)c1cc2c(cc1C(=O)N[C@H]1CC[C@H](C(F)(F)F)CC1)nc(Nc1c(Cl)ccc(CNC(=O)C(C)(C)C)c1Cl)n2C (stereo partly drawn)	8.70
Cn1c(Nc2c(Cl)ccc(CNC(=O)C(C)(C)C)c2Cl)nc2cc(C(=O)Nc3ccc(OC(F)(F)F)cc3)c(N3CC[C@@H](F)C3)cc21	8.46
Cn1c(Nc2c(Cl)ccc(CNC(=O)C(C)(C)C)c2Cl)nc2cc(C(=O)Nc3cccc(C(F)(F)F)n3)c(N3CCC(C(F)(F)F)CC3)cc21	8.70

(I) Cn1c(Nc2c(Cl)ccc(CNC(=O)C(C)(C)C)c2Cl)nc2cc(C(=O)NCC(F)(F)C(F)(F)F)c(N3CCC(F)(F)CC3)cc21
(II) Cn1c(Nc2c(Cl)ccc(CNC(=O)C(C)(C)C)c2Cl)nc2cc(C(=O)NCC(F)(F)F)c(Nc3ccc(F)c(Cl)c3)cc21
# compare pIC50 for I vs II ; return the one with the smaller value Give the label of your selection.
II

(P) Cn1c(Nc2c(Cl)ccc(CNC(=O)C(C)(C)C)c2Cl)nc2cc(C(=O)NCC(F)(F)F)c(N3CCC(F)CC3)cc21
(Q) Cn1c(Nc2c(Cl)ccc(CNC(=O)C(C)(C)C)c2Cl)nc2cc(C(=O)NC3(c4ccc(F)cc4)CC3)c(N3CCC(F)(F)C3)cc21
# compare pIC50 for P vs Q ; return the one with the smaller value Give the label of your selection.
Q
(Q: 8.30, P: 8.70)

###

# tested-on: mPGES-1 in A549 cells (Homo sapiens (Human), UniProt O14684)
# Sequence (O14684 whole entry): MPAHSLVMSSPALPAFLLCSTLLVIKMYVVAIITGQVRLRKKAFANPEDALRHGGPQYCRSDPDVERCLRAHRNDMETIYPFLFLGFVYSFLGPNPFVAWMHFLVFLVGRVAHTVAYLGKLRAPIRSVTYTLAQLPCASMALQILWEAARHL
# assay-comment: A549 cell-based assay (PGE2 formation, 50% human serum)
# experimental-parameters: IL-1β 5 ng/ml, 10 nM arachidonic acid, 20-24 h, read-out: mPGES-1 inhibitory effect IC50 in the cell assay
property: IC50 (nM)

compound	IC50 (nM)
CC(C)(O)Cn1c(Nc2c(Cl)ccc(CNC(=O)C(C)(C)C)c2Cl)nc2cc(C(=O)Nc3ccc(OC(F)(F)F)cc3)c(N3CCOCC3)cc21	12

(I) Cn1c(Nc2c(Cl)ccc(CNC(=O)C3(C)CC3)c2Cl)nc2cc(C(=O)N[C@H]3CC[C@H](C(F)(F)F)CC3)c(N3CC4CC4C3)cc21 (stereo partly drawn)
(II) Cn1c(Nc2c(Cl)ccc(CNC(=O)C(C)(C)C)c2Cl)nc2cc(C(=O)NCC3CC3)c(N3CCC(F)(F)C3)cc21
Hi, I'm comparing I with II and wondering which one has the bigger number for IC50. Any idea? Give the label of your selection.
II

Value source: patent US8674113B2
